- test-target: Sppl2a CD74 (Mus musculus)
- Construct: Mouse whole blood Balb/c mice (sodium citrate) was ordered by Bioreclamation LLC; tissue Bioreclamation LLC
- test-description: CD74/p8 mouse whole blood assay, flow cytometry format
- assay-conditions: Balb/c mouse whole blood, 5 h, CD74 signal on gated live B cells
pIC50: −log10 of the molar value.
pIC50 overview

{"columns": ["smiles-record", "pIC50"],
 "data": [
  ["Cc1nc(C(=O)NC(C)C)sc1C(=O)NC[C@H](C(=O)N[C@@H]1C(=O)N2CCCN2Cc2ccccc21)C(F)(F)F", 6.57],
  ["CC[C@H](CNC(=O)c1sc(C2=CCOCC2)nc1C)C(=O)N[C@@H]1C(=O)N2CCCN2Cc2ccccc21", 5.65],
  ["CCNC(=O)c1nc(C)c(C(=O)NC[C@H](C(=O)N[C@@H]2C(=O)N3CCCN3Cc3ccccc32)C2CC2)s1", 6.55]
]}

###

- test-target: human SPPL2a (Homo sapiens, UniProt Q8TCT8)
- Sequence (Q8TCT8 26-520): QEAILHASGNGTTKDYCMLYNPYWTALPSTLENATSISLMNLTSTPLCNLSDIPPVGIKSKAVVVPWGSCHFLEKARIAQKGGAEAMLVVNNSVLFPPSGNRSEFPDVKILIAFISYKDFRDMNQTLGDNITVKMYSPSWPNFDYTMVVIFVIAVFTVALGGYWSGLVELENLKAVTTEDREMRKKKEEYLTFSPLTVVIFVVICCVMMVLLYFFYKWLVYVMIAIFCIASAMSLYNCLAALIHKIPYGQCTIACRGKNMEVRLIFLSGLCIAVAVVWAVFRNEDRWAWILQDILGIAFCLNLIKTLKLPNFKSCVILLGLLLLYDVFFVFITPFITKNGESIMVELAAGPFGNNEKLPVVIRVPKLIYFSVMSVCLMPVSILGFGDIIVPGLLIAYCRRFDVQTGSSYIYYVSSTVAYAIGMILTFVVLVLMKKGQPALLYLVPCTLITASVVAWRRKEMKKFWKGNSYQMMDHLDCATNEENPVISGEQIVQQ
- test-description: Sppl2a RGA (reporter gene assay) in HEK293 cells
- Assay type: cell-based
- Parameters: expressed in transfected cells; host or cells: HEK293 (transient)
- assay-conditions: NT-TNF-VP16-Gal4 substrate, Gal4-luciferase reporter, 24 h
pIC50: −log10 of the molar value.

{"columns": ["smiles-record", "test-target", "pIC50"],
 "data": [
  ["CCNC(=O)c1nc(C)c(C(=O)NC[C@@H](C)C(=O)N[C@@H]2C(=O)N3CCCN3Cc3ccccc32)s1", "human SPPL2a (Homo sapiens, UniProt Q8TCT8)", 8.10],
  ["C[C@H](CC(=O)Nc1cc(-c2cncc(C(F)(F)F)c2)nn1C)C(=O)N[C@@H]1C(=O)N2CCCN2Cc2ccccc21", "human SPPL2a (Homo sapiens, UniProt Q8TCT8)", 8.10],
  ["CC[C@H](CNC(=O)c1sc(-c2ccc(OC)nc2)nc1Cl)C(=O)N[C@@H]1C(=O)N2CCCN2C(=O)c2ccccc21", "human SPPL2a (Homo sapiens, UniProt Q8TCT8)", 7.30],
  ["CCC[C@H](Cc1nc2cc(F)cc(C)c2[nH]1)C(=O)N[C@@H]1C(=O)N2CCCN2Cc2ccccc21", "human SPPL2a (Homo sapiens, UniProt Q8TCT8)", 7.72]
]}

###

pIC50 overview
- test-target: Sppl2a CD74 (Mus musculus, UniProt Q9JJF9)
- Construct: Mouse whole blood Balb/c mice (sodium citrate) was ordered by Bioreclamation LLC; tissue Bioreclamation LLC
- Sequence (Q9JJF9 26-523): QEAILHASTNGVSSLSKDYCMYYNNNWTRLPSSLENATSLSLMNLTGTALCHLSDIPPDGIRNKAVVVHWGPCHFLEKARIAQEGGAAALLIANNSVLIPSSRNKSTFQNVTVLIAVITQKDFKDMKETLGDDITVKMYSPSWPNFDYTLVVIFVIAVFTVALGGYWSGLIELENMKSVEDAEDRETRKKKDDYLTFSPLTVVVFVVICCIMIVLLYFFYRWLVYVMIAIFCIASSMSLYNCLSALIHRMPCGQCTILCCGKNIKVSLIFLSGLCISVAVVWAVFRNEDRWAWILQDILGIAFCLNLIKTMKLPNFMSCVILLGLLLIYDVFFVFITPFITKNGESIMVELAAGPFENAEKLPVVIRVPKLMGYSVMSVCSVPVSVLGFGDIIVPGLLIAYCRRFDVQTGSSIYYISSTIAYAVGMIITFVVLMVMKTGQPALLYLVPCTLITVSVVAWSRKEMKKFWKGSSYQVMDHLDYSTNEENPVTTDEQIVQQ
- test-description: CD74/p8 mouse whole blood assay, flow cytometry format
- assay-conditions: Balb/c mouse whole blood, 5 h, CD74 signal on gated live B cells
pIC50: −log10 of the molar value.
endpoint: pIC50

{"columns": ["smiles-record", "test-target", "result-number"],
 "data": [
  ["C[C@H](CNC(=O)c1sc(C2CC2)nc1Cl)C(=O)N[C@@H]1C(=O)N2CCCN2Cc2ccccc21", "Sppl2a CD74 (Mus musculus, UniProt Q9JJF9)", 5.76],
  ["C[C@H](CC(=O)Nc1cc(-c2ccccn2)nn1C)C(=O)N[C@@H]1C(=O)N2CCCN2Cc2ccccc21", "Sppl2a CD74 (Mus musculus, UniProt Q9JJF9)", 5.60],
  ["CC(C)C(=O)Nc1cc(NC(=O)C[C@H](C(=O)N[C@@H]2C(=O)N3CCCN3Cc3ccccc32)C2CCC2)n(C)n1", "Sppl2a CD74 (Mus musculus, UniProt Q9JJF9)", 6.46],
  ["C[C@H](CC(=O)Nc1cc(NC(=O)c2cccc(F)c2F)nn1C)C(=O)N[C@@H]1C(=O)N2CCCN2Cc2ccccc21", "Sppl2a CD74 (Mus musculus, UniProt Q9JJF9)", 5.77],
  ["Cc1cc(-c2nc(C)c(C(=O)NC[C@@H](C)C(=O)N[C@@H]3C(=O)N4CCCN4Cc4ccccc43)s2)on1", "Sppl2a CD74 (Mus musculus, UniProt Q9JJF9)", 6.00],
  ["Cn1nc(-c2cc(C3CC3)no2)cc1NC(=O)C[C@H](C(=O)N[C@@H]1C(=O)N2CC3(CC3)CN2C(=O)c2ccccc21)C1CC1", "Sppl2a CD74 (Mus musculus, UniProt Q9JJF9)", 5.90],
  ["C[C@H](CC(=O)Nc1cc(C(=O)NCC(F)F)nn1C)C(=O)N[C@@H]1C(=O)N2CCCN2Cc2ccccc21", "Sppl2a CD74 (Mus musculus, UniProt Q9JJF9)", 6.28],
  ["Cc1nc(C(=O)NCC(F)F)sc1C(=O)NC[C@@H](C)C(=O)N[C@@H]1C(=O)N2CCCN2Cc2ccccc21", "Sppl2a CD74 (Mus musculus, UniProt Q9JJF9)", 5.23],
  ["CC[C@H](CNC(=O)c1onc(C)c1C)C(=O)N[C@@H]1C(=O)N2CCCN2Cc2ccccc21", "Sppl2a CD74 (Mus musculus, UniProt Q9JJF9)", 6.38],
  ["CC(C)NC(=O)c1nc(Cl)c(NC(=O)C[C@@H](C)C(=O)N[C@@H]2C(=O)N3CCCN3Cc3ccccc32)s1", "Sppl2a CD74 (Mus musculus, UniProt Q9JJF9)", 6.64],
  ["CCOc1nc(C)c(C(=O)NC[C@@H](CC)C(=O)N[C@@H]2C(=O)N3CCCN3Cc3ccccc32)s1", "Sppl2a CD74 (Mus musculus, UniProt Q9JJF9)", 6.55],
  ["CC(C)C(=O)Nc1cc(NC(=O)C[C@@H](C)C(=O)N[C@@H]2C(=O)N3CCCN3Cc3ccccc32)n(C)n1", "Sppl2a CD74 (Mus musculus, UniProt Q9JJF9)", 6.50],
  ["C[C@H](CC(=O)Nc1cc(C(=O)NCC(F)(F)F)nn1C)C(=O)N[C@@H]1C(=O)N2CCCN2Cc2ccccc21", "Sppl2a CD74 (Mus musculus, UniProt Q9JJF9)", 6.48],
  ["C[C@H](CC(=O)Nc1cc(NC(=O)C(C)(C)C)nn1C)C(=O)N[C@@H]1C(=O)N2CCCN2Cc2ccccc21", "Sppl2a CD74 (Mus musculus, UniProt Q9JJF9)", 6.19]
]}
